Assay: Cytotoxicity, WST-1 cell viability assay
Type: cell-based, human
Settings: human, CBMCs, MT-2, H9, Jurkat and U937 cells; WST-1 cell viability assay
Description: The cellular toxicity of the compounds was also tested by WST-1 staining through assessing proliferation of MT-2, H9, Jurkat, U937, and CBMCs. The established cell lines were cultured in RPMI medium in 96-well plates at a density of 5×10^4 cells/well while CBMCs were plated at a concentration of 0.5×10^6/well. […] The cell activities were assessed at day 7 using the WST-1 reagent (Boehringer Mannheim) following the protocol provided by the supplier.
molecules and their reported CC50 at 7 days
Return type: number; implicit unit µM.

Input Nc1ccn([C@H]2CC[C@@H](CO)O2)c(=O)n1 [ddC, 2′,3′-dideoxycytidine] , output reported CC50 at 7 days.
29

Moving on to another molecule below.
Input Cc1cn([C@H]2C[C@H](N=[N+]=[N-])[C@@H](CO)O2)c(=O)[nH]c1=O [AZT, zidovudine, reference compound] , output reported CC50 at 7 days.
74

###

Test system: recombinant HXB2-D 41L/70R/215Y/219Q
Experiment: microbe, parasite or virus in culture
Type: cell-based, HIV-1
Details: Human immunodeficiency virus 1, HXB2, read-out: EC50 in CBMCs
compounds and their reported EC50
Form entry: enter the amount, then its unit.

# annotated cases, reported EC50 shown
System recombinant HXB2-D 41L/70R/215Y/219Q. Read-out EC50. Item Nc1nc2c(ncn2[C@H]2CO[C@@H](CO)O2)c(=O)[nH]1 [DXG, (−)-β-D-1,3-dioxolane guanine] . Report value.
240 nM

System recombinant HXB2-D 41L/70R/215Y/219Q. Read-out EC50. Item Nc1ccn([C@@H]2CS[C@H](CO)O2)c(=O)n1 [lamivudine, reference compound] . Report value.
62 nM

---
System recombinant HXB2-D 41L/70R/215Y/219Q. Read-out EC50. Item Nc1nc(N)c2ncn([C@H]3CO[C@@H](CO)O3)c2n1 [DAPD, (−)- -D-2,6-diaminopurine-1,3-dioxolane] . Report value.
1250 nM

###

compounds and their reported CC50 at 72 h
Assay: Cytotoxicity, [3H]-thymidine uptake, HepG2
Assay type: cell-based
Settings: human, HepG2 cells
Return type: number; implicit unit µM.

Input Nc1ccn([C@H]2CC[C@@H](CO)O2)c(=O)n1 , output reported CC50 at 72 h.
7

Input Cc1cn([C@H]2C[C@H](N=[N+]=[N-])[C@@H](CO)O2)c(=O)[nH]c1=O [AZT, zidovudine, reference compound] , output reported CC50 at 72 h.
3

---
Input Nc1ccn([C@@H]2CS[C@H](CO)O2)c(=O)n1 [lamivudine, reference compound] , output reported CC50 at 72 h.
350

###

Test system: HIV-1IIIB
Experiment: Anti-HIV-1 antiviral assay, laboratory strain HIV-1IIIB, RT activity in culture supernatants
Details: Human immunodeficiency virus 1, MT4, read-out: EC50, mean values ± SD
molecules and their reported EC50
Return type: number; implicit unit µM.

Input Nc1nc2c(ncn2[C@H]2CO[C@@H](CO)O2)c(=O)[nH]1 [DXG, (−)-β-D-1,3-dioxolane guanine] , output reported EC50.
0.051

Input Nc1ccn([C@@H]2CS[C@H](CO)O2)c(=O)n1 [lamivudine, reference compound] , output reported EC50.
0.056

Input Nc1nc(N)c2ncn([C@H]3CO[C@@H](CO)O3)c2n1 [DAPD, (−)- -D-2,6-diaminopurine-1,3-dioxolane] , output reported EC50.
0.94

Input Cc1cn([C@H]2C[C@H](N=[N+]=[N-])[C@@H](CO)O2)c(=O)[nH]c1=O [AZT, zidovudine, reference compound] , output reported EC50.
0.008

###

compounds and their reported pEC50
Tested on: recombinant HXB2-D 184V
Assay: microbe, parasite or virus in culture
Type: cell-based, HIV-1
Conditions: Human immunodeficiency virus 1, HXB2, read-out: EC50 in CBMCs
Please note pEC50 is a logarithmic value: minus log10 of concentration in mol/L. Answer with that number alone.

System recombinant HXB2-D 184V. Read-out pEC50. Item Nc1nc2c(ncn2[C@H]2CO[C@@H](CO)O2)c(=O)[nH]1 [DXG, (−)-β-D-1,3-dioxolane guanine] . Report value.
6.36

Moving on to another compound below.
System recombinant HXB2-D 184V. Read-out pEC50. Item Nc1nc(N)c2ncn([C@H]3CO[C@@H](CO)O3)c2n1 [DAPD, (−)- -D-2,6-diaminopurine-1,3-dioxolane] . Report value.
5.68
